B1: CPEB3 Ribozyme (parent)
chain: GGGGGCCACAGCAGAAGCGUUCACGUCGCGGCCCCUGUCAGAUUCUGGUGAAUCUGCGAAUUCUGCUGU

Variants of: B1
ASSAY_TEXT: self-cleavage, relative activity (ratio to wild type); higher = more cleavage; co-transcriptional
READOUT: self-cleavage
Write the number on its own, no unit after it.

A8G C63U
0.612
A13C C45A
0.761
G30U U55A
0.304
C33U G68C
1.02
C7A G58U
0.645

Please turn your attention to the following entry.
Measured self-cleavage of C57U G58A : 0.289
